Hey, just so you know, these numbers are from paper PMC8765048.

Biological target: UniProt P08684
Sequence (P08684 whole entry): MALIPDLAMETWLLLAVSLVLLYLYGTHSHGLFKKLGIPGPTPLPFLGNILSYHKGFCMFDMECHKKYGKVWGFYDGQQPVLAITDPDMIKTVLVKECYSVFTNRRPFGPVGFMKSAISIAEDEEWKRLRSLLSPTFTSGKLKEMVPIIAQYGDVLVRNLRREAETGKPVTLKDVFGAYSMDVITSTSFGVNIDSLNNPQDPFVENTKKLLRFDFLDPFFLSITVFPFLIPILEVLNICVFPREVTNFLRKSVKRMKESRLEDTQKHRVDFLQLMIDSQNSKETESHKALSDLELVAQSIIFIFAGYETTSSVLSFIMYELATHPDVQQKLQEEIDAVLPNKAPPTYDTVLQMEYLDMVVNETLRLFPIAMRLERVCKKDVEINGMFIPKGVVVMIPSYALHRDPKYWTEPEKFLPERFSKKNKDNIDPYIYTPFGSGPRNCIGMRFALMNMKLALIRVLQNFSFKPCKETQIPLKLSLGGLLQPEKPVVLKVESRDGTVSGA
Endpoint label: IC50

For NC(=O)c1cn([C@@H]2O[C@H](CO)[C@@H](O)[C@H]2O)c2ncnc(N)c12 , what is its reported IC50? > 100 µM

====

Assay: 24-hour plasma pharmacokinetics in CD-1 laboratory mice
Assay type: in vivo, mouse
Conditions: male, mouse, plasma, ip; CD-1 mice, males (97.3 ng/mL), i.p. 60 mg/kg; read-out: Cmax, molar equivalent
Endpoint label: Cmax
Please state the value followed by its unit.

So what's the measured Cmax for this one? NC(=O)c1cn([C@@H]2O[C@H](CO)[C@@H](O)[C@H]2O)c2ncnc(N)c12 [Sangivamycin, sangivamycin] 314 nM
